Experiment: Plasma pharmacokinetics after single oral administration
Format: in vivo, male Swiss Albino mice
Conditions: male, Swiss Albino, mouse, plasma; PO 50 mg/kg, 12 hrs after administration; read-out: plasma concentration at 12 hrs
Where a SMILES comes first, the peptide text is derived from it. [ ]: non-standard residue; d: D form. The star is where a group is joined. Trt = c1ccc(C(c2ccccc2)(c2ccccc2)*)cc1; Sar = CNCC(=O)O; tBu = CC(C)(C)*
experimental_endpoint: level at 12 h (µg/mL)

[[record]]
compound = "C[C@@H](OC(C)(C)C)[C@@H]1NC(=O)CN(C)C(=O)[C@H](CSC(c2ccccc2)(c2ccccc2)c2ccccc2)NC(=O)CNC(=O)[C@H](CSC(c2ccccc2)(c2ccccc2)c2ccccc2)NC(=O)CN(C)C1=O [CF88] (cyclo(C(Trt)GC(Trt)[Sar]T(tBu)[Sar]))"
experimental_endpoint = "level at 12 h"
display_unit = "µg/mL"
observed = 0.0108

